Target: EGFR L858R-T790M (Homo sapiens, UniProt P00533, L858R/T790M)
Construct: NCI-H1975 (harboring EGFR heterozygous L858R-T790M mutations); host or cells: NCI-H1975
Sequence (P00533 25-1210 T790M/L858R): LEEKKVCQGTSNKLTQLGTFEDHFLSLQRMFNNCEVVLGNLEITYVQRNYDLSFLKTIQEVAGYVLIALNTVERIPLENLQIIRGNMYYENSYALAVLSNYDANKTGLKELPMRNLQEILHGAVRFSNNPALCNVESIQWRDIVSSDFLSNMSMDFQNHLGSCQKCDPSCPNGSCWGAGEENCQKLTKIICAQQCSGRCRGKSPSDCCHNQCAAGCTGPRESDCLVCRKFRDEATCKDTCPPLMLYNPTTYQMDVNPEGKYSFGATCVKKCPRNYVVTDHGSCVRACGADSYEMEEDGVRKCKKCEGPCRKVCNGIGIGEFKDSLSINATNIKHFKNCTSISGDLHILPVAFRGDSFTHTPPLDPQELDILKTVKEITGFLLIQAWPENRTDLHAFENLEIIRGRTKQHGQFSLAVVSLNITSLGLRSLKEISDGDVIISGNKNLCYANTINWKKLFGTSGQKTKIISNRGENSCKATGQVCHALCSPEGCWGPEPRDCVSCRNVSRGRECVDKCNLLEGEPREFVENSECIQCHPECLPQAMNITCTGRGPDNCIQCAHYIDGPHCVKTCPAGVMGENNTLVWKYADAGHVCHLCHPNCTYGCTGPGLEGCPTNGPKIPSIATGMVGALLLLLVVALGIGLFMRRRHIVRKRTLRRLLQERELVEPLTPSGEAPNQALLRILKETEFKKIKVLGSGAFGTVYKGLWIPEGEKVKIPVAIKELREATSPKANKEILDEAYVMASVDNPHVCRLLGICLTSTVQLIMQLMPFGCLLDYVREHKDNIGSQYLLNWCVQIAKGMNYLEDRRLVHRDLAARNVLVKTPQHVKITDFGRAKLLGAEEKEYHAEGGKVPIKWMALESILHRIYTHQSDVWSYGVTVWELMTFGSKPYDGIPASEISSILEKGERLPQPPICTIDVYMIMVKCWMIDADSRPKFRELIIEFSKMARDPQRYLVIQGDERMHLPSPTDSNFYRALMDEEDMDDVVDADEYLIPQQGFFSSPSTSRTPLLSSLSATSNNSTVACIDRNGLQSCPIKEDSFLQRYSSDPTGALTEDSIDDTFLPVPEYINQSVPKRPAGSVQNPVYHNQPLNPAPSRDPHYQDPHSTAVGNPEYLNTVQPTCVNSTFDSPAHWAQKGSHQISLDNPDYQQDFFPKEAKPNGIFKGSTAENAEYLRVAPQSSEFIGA
Assay: EGFR degradation, Total EGFR (L858R-specific) HTRF, NCI-H1975
Assay type: cell-based
Settings: Table 9B; NCI-H1975 cells, 6 hours, Total EGFR HTRF; read-out: H1975 EGFR DC50

molecule	DC50
Cn1nc(N2CCC(=O)NC2=O)c2ccc(C3CCN(CC(=O)N4CC5(C4)CN(c4ccc(-c6ccc7cn(C(C(=O)Nc8nccs8)c8ncn9c8CCC9)nc7c6F)cn4)C5)CC3(F)F)cc21 (stereo not shown)	< 50 nM
Cn1nc(N2CCC(=O)NC2=O)c2ccc(C3CCN(CC(=O)N4CCC5(CC4)CN(c4ccc(-c6cc(F)c7c(c6)C(=O)N(C(C(=O)Nc6nccs6)c6ncn8c6CCC8)C7)cc4)C5)CC3(F)F)cc21 (stereo not shown)	< 50 nM
O=C1CC[C@H](Nc2ccc(N3CCC(O)(CC(=O)N4CC5(C4)CN(c4ccc(-c6cc(F)c7cn(C(C(=O)Nc8nccs8)c8ncn9c8CCC9)nc7c6)cc4)C5)CC3)c(F)c2)C(=O)N1 (stereo partly shown)	< 50 nM
O=C1CCC(Nc2ccc(C3CCN(CC(=O)N4CCN(c5ccc(-c6cc(F)c7c(c6)C(=O)N(C(C(=O)Nc6nccs6)c6ncn8c6CCC8)C7)cc5)CC4)CC3)c(F)c2)C(=O)N1 (stereo not shown)	< 50 nM
O=C1CC[C@H](Nc2ccc(C3CCN(C(=O)CC4CC5(C4)CN(c4ccc(-c6cc(F)c7c(c6)C(=O)N(C(C(=O)Nc6nccs6)c6ncn8c6CCC8)C7)cc4)C5)CC3)c(F)c2)C(=O)N1 (stereo partly shown)	< 50 nM
O=C1CC[C@H](Nc2ccc(C3CCN(CC(=O)N4C[C@H]5C[C@@H]4CN5c4ccc(-c5cc(F)c6c(c5)C(=O)N(C(C(=O)Nc5nccs5)c5ncn7c5CCC7)C6)cc4)CC3)c(F)c2)C(=O)N1 (stereo partly shown)	50 to 150 nM
O=C1CCC(Nc2cc(F)c(N3CCC(O)(CC(=O)N4CC5(C4)CN(c4ccc(-c6cc(F)c7c(c6)C(=O)N(C(C(=O)Nc6nccs6)c6ncn8c6CCC8)C7)cc4)C5)CC3)cc2F)C(=O)N1 (stereo not shown)	< 50 nM
O=C1CCC(Nc2ccc(C3CCN(CC(=O)N4CCN(c5ccc(-c6cc(F)c7c(c6)C(=O)N(C(C(=O)Nc6nccs6)c6ncn8c6CCC8)C7)cc5)CC4)CC3)nc2)C(=O)N1 (stereo not shown)	< 50 nM
Cn1nc(N2CCC(=O)NC2=O)c2ccc(N3CCN(CC(=O)N4CCN(c5ccc(-c6cc(F)c7c(c6)C(=O)N(C(C(=O)Nc6nccs6)c6ncn8c6CCC8)C7)cc5)CC4)CC3)cc21 (stereo not shown)	< 50 nM
O=C1CCC(Nc2ccc(C3CCN(C(=O)CC4CCN(c5ccc(-c6cc(F)c7c(c6)C(=O)N(C(C(=O)Nc6nccs6)c6ncn8c6CCC8)C7)cc5)CC4)CC3)c(F)c2)C(=O)N1 (stereo not shown)	50 to 150 nM
